- Tested on: SW-620
- experiment: NCI tumour cell line growth inhibition, 48 h
Activity calls are given as the source filed them. No stated cut-off is given here; in the data, active = GI50 up to about 1.1 µM and inactive = higher.
Outcome (select one): true (1) = active, false (0) = inactive

Could you check what this test reported for COC(=O)C1=C(C(=O)OC)SC(=CC#CC=C2SC(C(=O)OC)=C(C(=O)OC)S2)S1 ?
false (0)

I would be grateful if you could indicate the recorded call for Cc1cc2c(cc1Br)C1(C)CCC(C)C1(C)O2 (configuration not stated) .
false (0)

So what was the verdict on COc1cc(NS(=O)(=O)c2ccc(C)cc2)c2nccnc2c1 in this test?
false (0)

For COc1cc(Cl)c2c3c(c(C(C)=O)oc13)CCC2 , what call appears in the results of this test?
false (0)

***
Which result was noted for this molecule in the test: O[C@@H]1C[C@@H]2N[C@@](O)(C[C@@H]2O)[C@H]1O
false (0)

Give the logged outcome of this assay for the following molecule: CCCN(CCC)C(=O)c1c(N2CCN(C)CC2)c2cccnc2n2c(C)cnc12
false (0)

Name the outcome recorded for Cc1cc(C)n(-c2nc(C)c(CCO)c(=O)[nH]2)n1 in the assay.
false (0)

Hi, do you know how COc1ccc(-c2cc(=O)c3c(O)cc(C)cc3o2)cc1OC came out in this test?
false (0)

Tell me the assay call for O=C1NC(=O)C(C(c2ccc(Cl)cc2)C2C(=O)NC(=O)NC2=O)C(=O)N1.c1ccncc1 please.
false (0)

Status in this test for CN/N=C(\C)C(CN1CCCCC1)C(C1=C(O)c2ccccc2OC1)c1ccccc1 (configuration not stated) ?
false (0)

Recorded call for O=C(Oc1c(I)ccccc1=O)c1ccc([N+](=O)[O-])cc1 ?
false (0)

---

Listed molecules paired with reported GI50
- System: SK-OV-3
- experiment: NCI tumour cell line growth inhibition, 48 h
Activity calls are given as the source filed them. Cut-off read from the data, not from the text of the source: active = GI50 up to about 1.1 µM and inactive = higher.

Example entries begin here.
# GI50 of COc1cc(-c2cc(=O)c3c(O)c(OC)c(OC)c(OC)c3o2)ccc1O = 11.2 µM (inactive)

Note to self: GI50 recorded for Cc1ccc(S(=O)(=O)OCCC2CN(C(=O)OCc3ccccc3)C(C)(C)O2)cc1 (centres undefined) was > 100 µM (inactive)

Reported GI50 for Cc1cc(Cl)ccc1OCC(=O)Oc1c(Cl)c(Cl)c(Cl)c(Cl)c1Cl was 27.9 µM (inactive)

Summary for this molecule, O=C1C(Cl)=C(N2CCN(c3ccccn3)CC2)C(=O)c2ncccc21 : GI50 is 7 µM (inactive)

Please fill in: GI50 reported for CCC1c2cc3n(c(=O)c2COC1O)Cc1c-3nc2ccccc2c1Cl (centres undefined) = > 75 µM (inactive)

---
GI50 in this record for CCCCCCCCC[C@@H]1C[C@@H]2CCC3C(C(=O)OC)=C(C)N=C(N1)N32 (some centres undefined) : 10.6 µM (inactive)

Lab note: COC(=O)Cc1nn2c(nc1=O)sc1ccc3ccccc3c12 gave GI50 of > 100 µM (inactive)

CC(O)C(NC(=O)C(CS)NC(=O)C(CO)NC(=O)C(CCCCN)NC(=O)C(Cc1c[nH]c2ccccc12)NC(=O)C(Cc1ccc(O)cc1)NC(=O)C(CS)NC(=O)C(N)Cc1ccccc1)C(N)=O (centres undefined) yielded GI50 of > 25 µM (inactive)

For COc1ccc(NC(C)=O)c(C(O)CCNC(C)=O)c1 (centres undefined) the molecule record lists GI50 as > 100 µM (inactive)
